# target_or_test_system: endogenous CD38 in HL60 cells (Homo sapiens, UniProt P28907)
# Construct: endogenous in cells
# Sequence (P28907 1-300): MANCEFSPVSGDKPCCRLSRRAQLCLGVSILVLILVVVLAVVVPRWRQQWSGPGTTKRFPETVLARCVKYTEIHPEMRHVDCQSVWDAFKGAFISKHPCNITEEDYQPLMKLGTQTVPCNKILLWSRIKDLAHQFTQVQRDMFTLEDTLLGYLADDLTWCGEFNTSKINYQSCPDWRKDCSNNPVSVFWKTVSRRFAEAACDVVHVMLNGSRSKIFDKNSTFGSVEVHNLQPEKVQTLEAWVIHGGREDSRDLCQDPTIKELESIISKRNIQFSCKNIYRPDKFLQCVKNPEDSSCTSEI
# assay_info: cellular CD38 assay in HL60 cells (cellular NAD levels)
# setup_conditions: all-trans retinoic acid, 24 hours, read-out: hCD38 HL60 ATRA NAD Cell Diaphorase IC50
readout_kind: pIC50
Just the number, please; pIC50 means minus log10 of the concentration in mol/L.

Sample answers from the record:
>  <structure_smiles_string>
O=C(NC1CC2(C1)CC(F)(F)C2)c1ccnc(-n2ccnc2)n1

>  <target_or_test_system>
endogenous CD38 in HL60 cells (Homo sapiens, UniProt P28907)

>  <pIC50>
5.95

$$$$
>  <structure_smiles_string>
O=C(Nc1ccc(C(F)F)nc1)c1cc(C2CC2)nc(-n2ccnc2)n1

>  <target_or_test_system>
endogenous CD38 in HL60 cells (Homo sapiens, UniProt P28907)

>  <pIC50>
6.14

$$$$
>  <structure_smiles_string>
O=C(Nc1ccc(C(F)F)nc1)c1cc(C(F)(F)F)nc(-c2cncs2)n1

>  <target_or_test_system>
endogenous CD38 in HL60 cells (Homo sapiens, UniProt P28907)

>  <pIC50>
5.09

$$$$
>  <structure_smiles_string>
Cn1cncc1-c1nc(C(=O)N[C@H]2CC[C@H](C(F)F)CC2)cc(C(F)(F)F)n1

>  <target_or_test_system>
endogenous CD38 in HL60 cells (Homo sapiens, UniProt P28907)

>  <pIC50>
5.63

$$$$
>  <structure_smiles_string>
Cn1cncc1-c1ccnc(C(=O)Nc2ccc(C(C)(C)O)cc2)n1

>  <target_or_test_system>
endogenous CD38 in HL60 cells (Homo sapiens, UniProt P28907)

>  <pIC50>
6.00

$$$$

(Q) Fill in pIC50 for record "O=C(Nc1cncc(F)c1)c1cc(-n2ccnc2)ccn1"
(A) 5.17

(Q) Recall and state the measured pIC50 for "CC(C)(O)[C@H]1CC[C@H](NC(=O)c2nccc(-n3ccnc3)n2)CC1" .
(A) 5.29

(Q) Please supply the value of reported pIC50 for the item "CO[C@H]1CC[C@H](NC(=O)c2cc(C)cc(-c3cncn3C)n2)CC1"
(A) 5.32

(Q) Look up and state reported pIC50 for "COCCO[C@H]1CC[C@H](NC(=O)c2nc(-n3ccnc3)ccc2F)CC1"
(A) 5.13

(Q) Identify measured pIC50 associated with "COc1cc(C(=O)Nc2ccc(C(F)F)nc2)nc(-n2ccnc2)n1"
(A) 6.47

(Q) Give the reported pIC50 for this compound. "O=C(Nc1cccnc1)c1cccc(-n2ccnc2)c1"
(A) 5.22

(Q) Fill in reported pIC50 for this entry: "Cn1cncc1-c1nc(C(=O)N[C@@H]2C[C@@H]3[C@H](C2)C3(F)F)cc(C2CCOCC2)n1"
(A) 5.82

(Q) Answer with the recorded pIC50 of "COCCO[C@H]1CC[C@H](NC(=O)c2cc(C(F)(F)F)nc(-n3ccnc3)n2)CC1" only.
(A) 5.14

(Q) Given the compound "CO[C@H]1CC[C@H](NC(=O)c2nc(C3CC3)cc(-n3ccnc3)n2)CC1" , write its reported pIC50.
(A) 5.07

(Q) Retrieve pIC50 measured for "COCCO[C@H]1CC[C@H](NC(=O)c2ccc(F)c(-n3ccnc3)n2)CC1" and print it.
(A) 5.08

###

# target_or_test_system: CYP2C19 (Homo sapiens)
# Construct: from tissue; host or cells: human liver microsomes (pooled in the time-dependent assay)
# assay_info: time dependent inhibition of CYP450 in pooled human microsomes
# Type: in vitro ADME
# setup_conditions: pre-incubation 30 min (NO NADPH)
# Procedure: Time dependent inhibition: An assessment of the time-dependent Inhibitory potential of test compounds against the principal human cytochrome P450 isozymes was carried out using standard methods (Grimm et al, “The Conduct of in Vitro Studies to Address Time-Dependent Inhibition of Drug-Metabolizing Enzymes: A Perspective of the Pharmaceutical Research and Manufacturers of America”, Drug Metabolism and Disposition, 37 (7): 1355, 2009). […] LC-MS/MS was used to quantify metabolite formation. […]
pIC50: −log10 of the molar value.
readout_kind: pIC50

(Q) Identify measured pIC50 associated with CO[C@H]1CC[C@H](NC(=O)c2nccc(-c3cncn3C)n2)CC1 [Compound 148]
(A) < 4.52

###

# target_or_test_system: endogenous CD38 in HL60 cells (Homo sapiens, UniProt P28907)
# Construct: endogenous in cells
# assay_info: cellular CD38 assay in HL60 cells (cellular NAD levels)
# setup_conditions: all-trans retinoic acid, 24 hours, read-out: hCD38 HL60 ATRA NAD Cell Diaphorase IC50
# Method: The compounds described herein were also assayed for their ability to inhibit the endogenous CD38 in a native cellular environment in the cellular CD38 assay, which measures the ability of the compound to modulate cellular NAD levels. […] 50 μL of a readout-solution containing 0.2 U/mL Diaphorase enzyme, 40 uM resazurin, 10 uM FMN, 0.8 U/mL Alcohol dehydrogenase, 3% ethanol, 0.4 mg/mL bovine serum albumin, 0.2% Triton X-100 in 100 mM Tris-HCl, 30 mM EDTA, pH 8.4. […]
readout_kind: log10 of IC50 (log10 of the value in nM)
Remember, log10 of IC50, in nM.

>  <molecule>
O=C(N[C@H]1CC[C@](O)(c2ccccc2)CC1)c1nccc(-n2ccnc2)n1 [Compound 260]

>  <readout_kind>
log10 of IC50

>  <readout_value>
4.03

$$$$
>  <molecule>
Cc1cc(NC(=O)c2cccc(-c3cncs3)n2)ccn1 [Compound 52]

>  <readout_kind>
log10 of IC50

>  <readout_value>
4.06

$$$$
>  <molecule>
C[C@H]1CC[C@H](NC(=O)c2cc(C(F)(F)F)nc(-n3ccnc3)n2)CC1 [Compound 164]

>  <readout_kind>
log10 of IC50

>  <readout_value>
3.60

$$$$
>  <molecule>
COc1cc(C(=O)N[C@H]2CC[C@H](C)CC2)nc(-n2ccnc2)c1 [Compound 166]

>  <readout_kind>
log10 of IC50

>  <readout_value>
3.35

$$$$
>  <molecule>
CO[C@H]1CC[C@H](NC(=O)c2cc(C3(C)COC3)nc(-c3cncn3C)n2)CC1 [Compound 295]

>  <readout_kind>
log10 of IC50

>  <readout_value>
3.36

$$$$

(Q) Param request: log10 of IC50 | system endogenous CD38 in HL60 cells (Homo sapiens, UniProt P28907) | item Cc1ccc(NC(=O)c2cc(C(F)(F)F)nc(-n3ccnc3)n2)cn1 [Compound 137]
(A) 2.94

(Q) Specify log10 of IC50 for Cn1cncc1-c1ccnc(C(=O)N[C@H]2CC[C@H](C(C)(C)O)CC2)n1 [Compound 254] , system endogenous CD38 in HL60 cells (Homo sapiens, UniProt P28907).
(A) 3.56

(Q) Using endogenous CD38 in HL60 cells (Homo sapiens, UniProt P28907) as the test system, report measured log10 of IC50 of Cn1cncc1-c1nc(C(=O)N[C@H]2CCc3cc(F)ccc32)cc(C2CCOCC2)n1 [Compound 229] .
(A) 3.60

###

# target_or_test_system: CYP2B6 (Homo sapiens, UniProt P20813)
# Construct: from tissue; host or cells: human liver microsomes (pooled in the time-dependent assay)
# Sequence (P20813 whole entry): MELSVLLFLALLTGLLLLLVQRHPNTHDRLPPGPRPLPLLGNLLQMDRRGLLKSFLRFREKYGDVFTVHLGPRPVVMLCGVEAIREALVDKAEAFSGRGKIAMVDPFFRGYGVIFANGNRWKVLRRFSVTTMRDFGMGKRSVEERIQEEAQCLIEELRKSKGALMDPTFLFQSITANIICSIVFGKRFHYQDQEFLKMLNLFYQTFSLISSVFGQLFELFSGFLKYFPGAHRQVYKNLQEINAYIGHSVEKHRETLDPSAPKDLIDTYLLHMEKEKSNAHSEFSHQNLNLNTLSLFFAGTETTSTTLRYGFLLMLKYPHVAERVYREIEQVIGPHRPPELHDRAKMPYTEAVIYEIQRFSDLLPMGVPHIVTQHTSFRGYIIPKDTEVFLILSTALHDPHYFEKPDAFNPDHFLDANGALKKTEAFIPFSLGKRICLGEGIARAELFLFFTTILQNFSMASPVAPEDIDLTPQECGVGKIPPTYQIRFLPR
# assay_info: time dependent inhibition of CYP450 in pooled human microsomes
# Assay type: in vitro ADME
# setup_conditions: pre-incubation 30 min (NADPH); read-out: CYP2B6 IC50
readout_kind: IC50

(Q) Output measured IC50 for this item: "CO[C@H]1CC[C@H](NC(=O)c2nccc(-c3cncn3C)n2)CC1"
(A) > 30 µM

###

# target_or_test_system: CYP2C19 (Homo sapiens, UniProt P33261)
# Construct: from tissue; host or cells: human liver microsomes (pooled in the time-dependent assay)
# Sequence (P33261 whole entry): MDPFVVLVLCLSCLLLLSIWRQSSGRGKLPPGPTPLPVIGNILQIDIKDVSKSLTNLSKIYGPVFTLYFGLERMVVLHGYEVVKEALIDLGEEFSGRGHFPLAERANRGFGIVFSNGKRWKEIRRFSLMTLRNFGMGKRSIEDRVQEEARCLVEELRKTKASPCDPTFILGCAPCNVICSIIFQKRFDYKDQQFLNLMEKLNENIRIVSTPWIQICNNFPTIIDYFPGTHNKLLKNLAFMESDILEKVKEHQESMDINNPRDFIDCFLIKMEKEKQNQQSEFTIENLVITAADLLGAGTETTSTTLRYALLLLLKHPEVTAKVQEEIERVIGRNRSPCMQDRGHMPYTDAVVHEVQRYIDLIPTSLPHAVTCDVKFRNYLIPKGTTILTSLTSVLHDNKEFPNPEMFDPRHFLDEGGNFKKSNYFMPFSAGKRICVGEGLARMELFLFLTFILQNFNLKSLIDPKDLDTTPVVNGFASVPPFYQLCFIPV
# assay_info: time dependent inhibition of CYP450 in pooled human microsomes
# Type: in vitro ADME
# setup_conditions: pre-incubation 0 min
readout_kind: IC50

(Q) Output measured IC50 for this item: "CO[C@H]1CC[C@H](NC(=O)c2nccc(-c3cncn3C)n2)CC1"
(A) > 30 µM

###

# target_or_test_system: endogenous CD38 in HL60 cells (Homo sapiens)
# Construct: endogenous in cells
# assay_info: cellular CD38 assay in HL60 cells (cellular NAD levels)
# setup_conditions: all-trans retinoic acid, 24 hours, read-out: hCD38 HL60 ATRA NAD Cell Diaphorase IC50
readout_kind: log10(IC50) (log10 of the value in nM)
The base-10 logarithm of IC50, taken with IC50 in nM, is what appears here.

>  <structure_smiles_string>
O=C(Nc1cccnc1)c1cc(-n2ccnc2)ccn1

>  <target_or_test_system>
endogenous CD38 in HL60 cells (Homo sapiens)

>  <log10(IC50)>
3.30

$$$$
>  <structure_smiles_string>
O=C(Nc1ccccn1)c1cc(-n2ccnc2)ccn1

>  <target_or_test_system>
endogenous CD38 in HL60 cells (Homo sapiens)

>  <log10(IC50)>
3.93

$$$$
>  <structure_smiles_string>
COc1ccc([C@H]2C[C@H](NC(=O)c3nccc(-c4cncn4C)n3)C2)cc1

>  <target_or_test_system>
endogenous CD38 in HL60 cells (Homo sapiens)

>  <log10(IC50)>
3.35

$$$$
>  <structure_smiles_string>
Cn1cncc1-c1nc(C(=O)N[C@H]2CCc3c(F)cccc32)cc(C2CCOCC2)n1

>  <target_or_test_system>
endogenous CD38 in HL60 cells (Homo sapiens)

>  <log10(IC50)>
3.59

$$$$
>  <structure_smiles_string>
COc1cc(C(=O)N[C@H]2CC[C@H](OC)CC2)nc(-c2cncn2C)n1

>  <target_or_test_system>
endogenous CD38 in HL60 cells (Homo sapiens)

>  <log10(IC50)>
2.97

$$$$

(Q) Provide log10(IC50), tested on endogenous CD38 in HL60 cells (Homo sapiens), for "Cn1cncc1-c1nc(C(=O)NC2CC3(COC3)C2)cc(C2CCC(F)(F)CC2)n1" .
(A) 3.57

(Q) Write down measured log10(IC50) (endogenous CD38 in HL60 cells (Homo sapiens)) for this compound. "Cn1cncc1-c1cccc(C(=O)Nc2cccnc2)n1"
(A) 2.89

(Q) Give log10(IC50) for this entry on endogenous CD38 in HL60 cells (Homo sapiens): "Cc1cc(-c2cncn2C)nc(C(=O)Nc2ccc(C(F)(F)F)nc2)n1"
(A) 2.58

(Q) Report value: log10(IC50), system: endogenous CD38 in HL60 cells (Homo sapiens), compound: "CC(C)c1cc(C(=O)N[C@H]2CC[C@H](C(F)F)CC2)nc(-n2ccnc2)n1"
(A) 3.94

(Q) Look up and report log10(IC50), with endogenous CD38 in HL60 cells (Homo sapiens) as system, for "CO[C@H]1CC[C@H](NC(=O)c2cc(C)cc(-n3ccnc3)n2)CC1"
(A) 3.21

(Q) Recall the reported log10(IC50) of "CO[C@H]1CC[C@H](NC(=O)c2nc(C)cc(-c3cncn3C)n2)CC1" when tested on endogenous CD38 in HL60 cells (Homo sapiens).
(A) 3.52

(Q) Report value only: log10(IC50), endogenous CD38 in HL60 cells (Homo sapiens), "O=C(Nc1cccnc1)c1ccnc(-n2ccnc2)c1"
(A) 3.64

(Q) Tell me its log10(IC50) on endogenous CD38 in HL60 cells (Homo sapiens): "O=C(Nc1ccc(C(F)F)nc1)c1nccc(-n2ccnc2)n1"
(A) 2.11

(Q) Fill in log10(IC50) for "Cc1cc(C(=O)N[C@H]2CC[C@H](C)CC2)nc(-c2cncn2C)n1" tested with endogenous CD38 in HL60 cells (Homo sapiens).
(A) 2.98

(Q) Give the observed log10(IC50) of "O=C(Nc1ccc(C(F)(F)F)nc1)c1nc(-n2ccnc2)ccc1F" for endogenous CD38 in HL60 cells (Homo sapiens).
(A) 2.96

(Q) Would you please give the reported log10(IC50) of "CC(=O)N1CC2(CC(NC(=O)c3cccc(-n4ccnc4)n3)C2)C1" with endogenous CD38 in HL60 cells (Homo sapiens)?
(A) 3.96

(Q) Under endogenous CD38 in HL60 cells (Homo sapiens): report log10(IC50) of "CC(C)c1cc(C(=O)N[C@H]2CC[C@H](C(F)F)CC2)nc(-c2cncn2C)n1" .
(A) 3.47

(Q) State log10(IC50) (endogenous CD38 in HL60 cells (Homo sapiens)) of "Cn1cncc1-c1ccnc(C(=O)N[C@H]2C[C@H](c3ccc(C(F)(F)F)nc3)C2)n1" .
(A) 3.39
